Tested on: MS2 coat protein
ASSAY: apparent KD of MS2 coat protein; designed switch direction (-1 OFF switch, 1 ON switch): -1; higher = weaker reporter binding
EXPERIMENTAL_PARAMETERS: Eterna round: R95; input ligand: microRNA oligo, concentration not stated
OUTCOME_MEASURE: apparent KD of MS2 coat protein (nM)
The response must be a number in nM with no trailing unit.

AGUAGAUCUACGCUUGCGUGGAUCUGCUAGGCAGGUGUAACAUGAGGAUCACCCAUGUCCUCAUUUGUUCGUCUUAU [JL turnoff v2 99.18] (puzzle: Sensor v3, turn-off variant 2)    313
CUAUUACGAGGAUAUGAUUUAAAUAACAUGAGGAUCACCCAUGUUUUUACGUUAUUUUAUUUAGAAGGCGUAUUGU [JR_E5_Sub028] (puzzle: Exclusion 5)    53.7
AUACCACGAGGAUAUCGUCUAUUCCACAUGAGGAUCACCCAUGUUAUCCAUGUUUCGUUUCGAGAAGGCGUGGGUU [JR_E5_Sub074] (puzzle: Exclusion 5)    45.9
AAGAAACAUGAGGAUCACCCAUGUGAGGAUAUGAUGCGAAUUAUGUAUGUAGUAAGCAUCAGAAGGCACAAAGG [Mat - Mod Mix D39] (puzzle: Exclusion 1)    142

Now for the sequence whose apparent KD of MS2 coat protein we want.
Enquiry: Look up apparent KD of MS2 coat protein for this sequence: AGUUGGCGAGGAUAUACAUGAGGAUCACCCAUGUGAGAGAAAAAAGUGAGGAAGAAAAGUAGAAGGCGCUGACU [salish99_ex3_r3_039] (puzzle: Exclusion 3)
Return: 46.3

###

Listed here: items and their measured apparent KD of MS2 coat protein.
Test system: MS2 coat protein
ASSAY: apparent KD of MS2 coat protein; designed switch direction (-1 OFF switch, 1 ON switch): 1; higher = weaker reporter binding
EXPERIMENTAL_PARAMETERS: input ligand: none
Quick note: give the figure in nM, leave out the unit.

CUGAGAAGUCAAGGAUAUCACGUCGAUUAGACGUGAGAAGGUGAUCAUUACAUGAGGAUCACCCAUGUGUUACAUGGAGCUCAG [Brourd's SSNG1/1-A2 mod 6] (Eterna round: R96, puzzle: Same State NG 1)    938

Enquiry: Quick check: apparent KD of MS2 coat protein of CGCCAAUUGGCACAGGAUAUGAGCAUGCUCACAUGAGGAUCACCCAUGUGAUUACCAACGCAAAAUCAGAAGGGUGCCCUCGUCA [Beanza] (Eterna round: R96, puzzle: Same State 2) ?
Return: 164

Enquiry: So what's the measured apparent KD of MS2 coat protein for this one? GGUGCCAAAUAAGCCUACAUGAGGAUCACCCAUGUAUGUAGGUAGGAUAUCGUUUGCAAAGCAAACGAGAAGGGCCUAGGCACC [Mat - Same State NG 3 - JL Mod - D59] (Eterna round: R96, puzzle: Same State NG 3)
Return: 50.7

Enquiry: Param item = GAGUGGCAGUUAGGAUAUAUAGUGAUAAUCACAAUAGAAGGAACAGACAUGAGGAUCACCCAUGUAGGACUAAUCCAGAGAGAG [Parity 37 - Jieux - Same State NG 1] (Eterna round: R96, puzzle: Same State NG 1) ; retrieve measured apparent KD of MS2 coat protein.
Return: 23.4

Enquiry: Given UGCUUCGUGUAAGGAUAUGCAGCCGUUUCGGCUGCAGAAGGUACUAUAAUACAUGAGGAUCACCCAUGUCUCUCGCAUUGCGGG [salish99_SSng1_r04_303] (Eterna round: R96, puzzle: Same State NG 1) , state its recorded apparent KD of MS2 coat protein.
Return: 52.2
